# assayed-system: UniProt O00411
# Sequence (O00411 whole entry): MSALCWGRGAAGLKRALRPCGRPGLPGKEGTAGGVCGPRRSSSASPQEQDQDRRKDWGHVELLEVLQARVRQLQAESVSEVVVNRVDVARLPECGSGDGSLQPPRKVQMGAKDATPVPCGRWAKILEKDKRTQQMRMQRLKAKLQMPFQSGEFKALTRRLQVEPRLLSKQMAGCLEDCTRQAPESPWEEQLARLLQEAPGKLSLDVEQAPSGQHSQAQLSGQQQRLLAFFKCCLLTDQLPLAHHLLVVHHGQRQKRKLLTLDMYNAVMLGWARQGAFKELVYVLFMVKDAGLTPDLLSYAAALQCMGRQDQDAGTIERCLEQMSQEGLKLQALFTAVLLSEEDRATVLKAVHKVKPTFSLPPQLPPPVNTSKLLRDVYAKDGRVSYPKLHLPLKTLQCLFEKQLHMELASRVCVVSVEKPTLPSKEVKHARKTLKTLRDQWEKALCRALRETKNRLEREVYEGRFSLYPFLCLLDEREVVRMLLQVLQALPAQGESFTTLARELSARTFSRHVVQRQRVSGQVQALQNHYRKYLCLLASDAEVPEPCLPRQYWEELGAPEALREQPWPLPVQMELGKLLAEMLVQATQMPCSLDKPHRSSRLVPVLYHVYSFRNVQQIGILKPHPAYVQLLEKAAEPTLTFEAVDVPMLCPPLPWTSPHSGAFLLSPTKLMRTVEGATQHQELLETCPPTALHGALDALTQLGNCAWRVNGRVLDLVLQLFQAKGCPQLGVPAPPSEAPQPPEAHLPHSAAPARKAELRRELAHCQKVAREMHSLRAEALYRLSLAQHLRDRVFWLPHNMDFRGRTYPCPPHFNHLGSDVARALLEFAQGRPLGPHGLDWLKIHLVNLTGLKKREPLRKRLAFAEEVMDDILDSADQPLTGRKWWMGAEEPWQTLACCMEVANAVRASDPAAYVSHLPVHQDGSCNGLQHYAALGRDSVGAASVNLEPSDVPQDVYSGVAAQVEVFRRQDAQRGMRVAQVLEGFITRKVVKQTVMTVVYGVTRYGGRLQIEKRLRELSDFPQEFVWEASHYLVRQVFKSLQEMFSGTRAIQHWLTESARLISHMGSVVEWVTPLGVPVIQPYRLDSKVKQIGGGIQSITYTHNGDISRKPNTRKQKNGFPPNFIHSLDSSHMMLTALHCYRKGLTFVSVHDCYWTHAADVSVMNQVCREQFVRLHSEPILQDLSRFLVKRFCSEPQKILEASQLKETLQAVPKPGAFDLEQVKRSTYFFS
measurement-name: IC50 (nM)

Reference set (2 entries):
**Query** Return IC50 (reported value) for this compound: CC(=Cc1ccc2c(-c3ccccc3C)cc(=O)oc2c1)C(=O)N(C)C [US20250326732, Example 64]
**Result** 300

**Query** Give recorded IC50. CN(C=CC(N)=O)c1ccc2c(-c3ccc(F)cc3Cl)cc(=O)oc2c1 [US20250326732, Example 137]
**Result** 900

[I] COC=C(Cc1ccc2c(-c3ccccc3C)cc(=O)oc2c1)C(N)=O [US20250326732, Example 208]
[II] COC=C(Cc1ccc2c(-c3ccccc3C)cc(=O)oc2c1)C(N)=O [US20250326732, Example 207]
**Query** Lower value of IC50 belongs to which: I or II ? State the label of the item chosen.
**Result** I
